Test system: biotinyl-Ile-oxazolone
Assay: self-aminoacylation, catalytic enhancement (BIO) (fold over background); higher = more active; k-Seq, kA / k0A0; sequences stand for … in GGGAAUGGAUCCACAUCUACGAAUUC…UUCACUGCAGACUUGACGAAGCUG
This sample holds only a part of the variants without activity.
outcome_measure: self-aminoacylation
Answers are plain numbers.

Some sequences with recorded self-aminoacylation:
AAGUUUGCAAAGAGUCGCAAG [Fam3.1 aminoacylation ribozyme variant]
0.841
AUUUCCCUGGUCAUGGAGUGA [Fam2.1 aminoacylation ribozyme variant]
2.96
CUACACUUAAAGCAAUCGGUC [Fam1B.1 aminoacylation ribozyme variant]
0.786
AUUCACUUAGGACAUCGGGUG [Fam2.2 aminoacylation ribozyme variant]
2.33
CCACACUCCAAGUAAUCGGUC [Fam1B.1 aminoacylation ribozyme variant]
1.01
AUCACCCUGGUCAUCCAGUGA [Fam2.1 aminoacylation ribozyme variant]
4.34

For each of the items listed, what is its self-aminoacylation?
1. CUACUACAAACGAUCGGUCUG [Fam1A.1 aminoacylation ribozyme variant]
2. CCACACUUCGAGCAAUCGGUG [Fam1B.1 aminoacylation ribozyme variant]
3. CCACACUACAAACAAUCGGUC [Fam1B.1 aminoacylation ribozyme variant]
4. CGACACUUCAAGCAAUCGUUC [Fam1B.1 aminoacylation ribozyme variant]
5. AUCCACCUUGGUCAUCGGGUG [Fam2.2 aminoacylation ribozyme variant]

0.821
1.62
0.904
0.778
4.12

Give self-aminoacylation for each of the items listed below.
1. CCACACUUCAAGCCAUCGGCC [Fam1B.1 aminoacylation ribozyme variant]
2. AUUACCCUGCUAAUCGAGUGA [Fam2.1 aminoacylation ribozyme variant]
3. AUUCACCUAGUUCAUCGUGUG [Fam2.2 aminoacylation ribozyme variant]
4. AUUGACCUAGGUCACCGGGUG [Fam2.2 aminoacylation ribozyme variant]

1: 2.98; 2: 1.44; 3: 0.937; 4: 4.43

Please state self-aminoacylation for every sequence in the list that follows.
1. AAUUUUGCUAAUAGUCGCGAG [Fam3.1 aminoacylation ribozyme variant]
2. AAUAUCCUGGUCAUCGAGUGA [Fam2.1 aminoacylation ribozyme variant]
3. AUUCACCUAGGUCGUCGGGUG [Fam2.2 aminoacylation ribozyme variant]

1. 2.28
2. 4.6
3. 1.61

// data source = the supplement of paper PMC9233669
